Tested on: soybean (Glycine max)
Assay: Test C greenhouse herbicide test, pre- and postemergence
Type: in vivo
Conditions: Preemergence, 31 g ai/ha; scale 0 to 100, 0 is no effect, 100 is complete control
Can you tell me Plant response rating, Soybean for the items I'm about to list?
One number for each entry.

Example entries and their recorded answers appear below.
COC(=O)Oc1cnn(C)c(=O)c1-c1c(C)sc2ccccc12 15
Cc1sc2ccccc2c1-c1c(O)c(Cl)nn(C)c1=O 0
Cc1ccc2sc(C)c(-c3c(OC(=O)OC(C)C)c(C)nn(C)c3=O)c2c1 0
COC(=O)Oc1c(C)nn(C)c(=O)c1-c1c(C)sc2ccc(C)cc12 0
Cc1ccc2ccc(Cl)cc2c1-c1c(O)c(C)nn(C)c1=O 5

Give me Plant response rating, Soybean for each of these molecules, listed below.
1. CCC(=O)Oc1c(C)nn(C)c(=O)c1-c1ccc(Br)c2ccccc12
2. CCc1sc2ccc(C)cc2c1-c1c(O)c(C)nn(C)c1=O
3. Cc1ccc2sc(Br)c(-c3c(O)c(C)nn(C)c3=O)c2c1

Result ::
1. 40
2. 0
3. 0

====

Tested on: velvetleaf (Abutilon theophrasti)
Assay: Test C greenhouse herbicide test, pre- and postemergence
Type: in vivo
Settings: Preemergence, 250 g ai/ha; scale 0 to 100, 0 no effect, 100 complete control
observable: Velvetleaf plant response rating
Numbers only.

Below, 3 compounds whose answers are already recorded.
COC(=O)Oc1cnn(C)c(=O)c1-c1c(C)sc2ccccc12 30
Cc1nn(C)c(=O)c(-c2ccc(Br)c3ccccc23)c1O 98
CCC(=O)Oc1c(C)nn(C)c(=O)c1-c1ccc(F)c2ccccc12 100

Parameter requested: Velvetleaf plant response rating. Apply to each item below.
1. Cc1ccc2ccccc2c1-c1c(OC(=O)OC(C)C)c(C)nn(C)c1=O
2. COC(=O)Oc1c(OC)nn(C)c(=O)c1-c1c(C)ccc2ccccc12
3. CC(=O)Oc1c(Cl)nn(C)c(=O)c1-c1c(C)sc2ccc(Cl)cc12
4. CCc1ccc2ccccc2c1-c1c(O)c(C)nn(C)c1=O
5. Cc1ccc2ccccc2c1-c1c(O)c(I)nn(C)c1=O
6. Cc1ccc2ccccc2c1-c1c(O)c(Br)nn(C)c1=O

Result ::
1. 85
2. 100
3. 100
4. 90
5. 100
6. 100

====

Test system: foxtail, giant (giant foxtail, Setaria faberii)
Assay: Test E greenhouse herbicide test, pre- and postemergence
Format: in vivo
Details: 62 g ai/ha, Preemergence; scale 0 to 100 (0 no effect, 100 complete control)
observable: Plant response rating, Foxtail, Giant

Here is how some compounds turned out for Plant response rating, Foxtail, Giant.
compound	observable	test_result
CCc1sc2c(C)cc(C)cc2c1-c1c(O)c(C)nn(C)c1=O [Compound 57]	Plant response rating, Foxtail, Giant	35
CCCC(=O)Oc1c(C)nn(C)c(=O)c1-c1c(C)sc2ccc(C)cc12 [Compound 105]	Plant response rating, Foxtail, Giant	35
Cc1ccc2sc(Br)c(-c3c(O)c(C)nn(C)c3=O)c2c1 [Compound 79]	Plant response rating, Foxtail, Giant	70
COC(=O)Oc1c(C)nn(C)c(=O)c1-c1c(C)sc2ccc(C)cc12 [Compound 80]	Plant response rating, Foxtail, Giant	80

Query :: For the compound Cn1nc(Br)c(O)c(-c2cccc3ccccc23)c1=O [Compound 20] , give its reported Plant response rating, Foxtail, Giant.
Result :: 20

====

Tested on: wheat (winter wheat, Triticum aestivum)
Test: Test C greenhouse herbicide test, pre- and postemergence
Format: in vivo
Conditions: postemergence, 62 g ai/ha; scale 0 to 100, 0 no effect, 100 complete control
For each entry below, report its Wheat plant response rating value.
Numbers only.

Study these solved cases before continuing.
Cc1ccc2ccccc2c1-c1c(OC(=O)OC(C)C)c(C)nn(C)c1=O 30
CC(=O)Oc1c(C)nn(C)c(=O)c1-c1c(C)cc(C)c2ccccc12 0
CCc1ccc2ccccc2c1-c1c(O)c(C)nn(C)c1=O 15
Cc1ccc2ccccc2c1-c1c(O)c(I)nn(C)c1=O 5
CCC(=O)Oc1c(C)nn(C)c(=O)c1-c1c(C)ccc2ccccc12 5
Cc1ccc2sc(C)c(-c3c(OC(=O)OC(C)C)c(C)nn(C)c3=O)c2c1 0

Take each entry in turn and give its Wheat plant response rating.
1. Cc1cc2ccccc2c(-c2c(O)c(C)nn(C)c2=O)c1C
2. Cc1nn(C)c(=O)c(-c2cccc3ccccc23)c1O

Result ::
[5, 0]

====

Please go through the items and note down their Nutsedge, Yellow plant response rating.
Test system: nutsedge, yellow (yellow nutsedge, Cyperus esculentus)
Assay: Test C greenhouse herbicide test, pre- and postemergence
Format: in vivo
Conditions: Preemergence, 250 g ai/ha; scale 0 to 100, 0 no effect, 100 complete control
Numbers only.

Worked set:
Cc1nn(C)c(=O)c(-c2cccc3ccccc23)c1O 30
CCCC(=O)Oc1c(C)nn(C)c(=O)c1-c1c(CC)sc2ccc(C)cc12 90
CC(=O)Oc1c(Cl)nn(C)c(=O)c1-c1c(C)sc2ccc(C(F)(F)F)cc12 85
Cc1sc2ccccc2c1-c1c(O)c(Cl)nn(C)c1=O 90
COC(=O)Oc1c(C)nn(C)c(=O)c1-c1ccc(Br)c2ccccc12 90

// each molecule listed below needs its Nutsedge, Yellow plant response rating
1. CCc1ccc2ccccc2c1-c1c(O)c(C)nn(C)c1=O
2. Cc1cc(C)c2sc(C)c(-c3c(O)c(C)nn(C)c3=O)c2c1
3. CC(=O)Oc1c(C)nn(C)c(=O)c1-c1c(C)sc2ccc(C(F)(F)F)cc12
4. Cc1nn(C)c(=O)c(-c2ccc(Cl)c3ccccc23)c1O

Result ::
[60, 95, 75, 90]

Provide the reported Nutsedge, Yellow plant response rating of each entry below, same order.
1. Cc1nn(C)c(=O)c(-c2c(C)sc3ccc(Br)cc23)c1O
2. Cn1nc(Br)c(O)c(-c2cccc3ccccc23)c1=O

Result ::
1: 70; 2: 95

====

System: lambsquarters (Chenopodium album)
Assay: Test D controlled growth environment herbicide test, pre- and postemergence
Assay type: in vivo
Conditions: Postemergence, 250 g ai/ha; scale 0 to 100 (0 no effect, 100 complete control)
What Plant response rating, Lambsquarters was measured for each of the following?
Answers are plain numbers.

Some solved cases for reference:
Cc1ccc2sc(C)c(-c3c(OC(=O)OC(C)C)c(C)nn(C)c3=O)c2c1 100
Cc1cc2ccccc2c(-c2c(O)c(C)nn(C)c2=O)c1C 100

Please go through the list and note Plant response rating, Lambsquarters for each molecule.
1. Cc1nn(C)c(=O)c(-c2ccc(F)c3ccccc23)c1O
2. CCCC(=O)Oc1c(C)nn(C)c(=O)c1-c1c(C)sc2ccc(C)cc12
3. Cn1nc(Br)c(O)c(-c2cccc3ccccc23)c1=O
4. Cc1nn(C)c(=O)c(-c2c(C)sc3ccc(Br)cc23)c1O
5. Cc1cc(C)c2sc(C)c(-c3c(O)c(C)nn(C)c3=O)c2c1

Result ::
[85, 95, 95, 98, 100]

====

Tested on: waterhemp_RES1 (ALS & Triazine resistant common waterhemp, Amaranthus rudis)
Test: Test E greenhouse herbicide test, postemergence
Type: in vivo
Settings: 62 g ai/ha, scale 0 to 100 (0 no effect, 100 complete control)
Hi there, I'd appreciate the recorded Plant response rating, Waterhemp_RES1 for every entry that follows.
Answers are plain numbers.

compound	observable	test_result
Cc1nn(C)c(=O)c(-c2ccc(F)c3ccccc23)c1O [Compound 41]	Plant response rating, Waterhemp_RES1	75
Cn1nc(Br)c(O)c(-c2cccc3ccccc23)c1=O [Compound 20]	Plant response rating, Waterhemp_RES1	70
CCc1sc2ccc(C)cc2c1-c1c(O)c(C)nn(C)c1=O [Compound 47]	Plant response rating, Waterhemp_RES1	70
Cc1nn(C)c(=O)c(-c2ccc(Br)c3ccccc23)c1O [Compound 75]	Plant response rating, Waterhemp_RES1	90

Could you now look at the following compound, please?
Query :: Note down Plant response rating, Waterhemp_RES1 recorded for Cc1ccc2ccccc2c1-c1c(OC(=O)OC(C)C)c(C)nn(C)c1=O [Compound 72]
Result :: 80

====

Could you please report measured Plant response rating, Pigweed for the items listed next?
Test system: pigweed (Amaranthus retroflexus)
Test: Test D controlled growth environment herbicide test, pre- and postemergence
Assay type: in vivo
Conditions: Preemergence, 62 g ai/ha; scale 0 to 100 (0 no effect, 100 complete control)
Give bare numbers.

Some entries whose results are on file:
molecule	Plant response rating, Pigweed
Cc1ccc2ccccc2c1-c1c(OC(=O)OC(C)C)c(C)nn(C)c1=O [Compound 72]	85
Cc1nn(C)c(=O)c(-c2cccc3ccccc23)c1O [Compound 11]	0
Cn1nc(Br)c(O)c(-c2cccc3ccccc23)c1=O [Compound 20]	40

For the 2 molecules below, give their Plant response rating, Pigweed values.
1. Cc1nn(C)c(=O)c(-c2c(C)sc3c(C)cc(Cl)cc23)c1O [Compound 35]
2. Cc1ccc2sc(Br)c(-c3c(O)c(C)nn(C)c3=O)c2c1 [Compound 79]

Result ::
1: 95; 2: 100
